Data credit: ChEMBL document CHEMBL3433997

target: Hexose transporter 1 (Plasmodium falciparum); assay: ST_JUDE_LEISH: Cytotoxicity at 2uM final concentration against transgenic Leishmania Mexicana promastigotes LmPfHT that are glucose transport deficient and complemented with the Plasmodium falciparum hexose transporter. Activity is measured by DNA content using SYBR green in vitro; assay type: functional

Compound: CCS(=O)(=O)Nc1ccc2[nH]cc(C3CCN(CCC4CCN(C(=O)/C=C/c5ccc(Cl)c(Cl)c5)CC4)CC3)c2c1
Units: %
inhibition: 4.42
//
Compound: CCNc1cc(C(=O)N[C@@H](Cc2ccccc2)[C@H](O)CNC2CCC(C(C)(C)C)CC2)cc(N2CCCC2=O)c1 (stereo partly drawn)
Units: %
inhibition: 1.1
//
Compound: CCOc1ccc2c(=NN=Cc3cccc(OC)c3)cc(C)[nH]c2c1
Units: %
inhibition: -0.19
//
Compound: c1ccc(C2=NN=C(c3ccccn3)C3C4CC(C23)C2C3CC(c5ccccc53)C42)nc1 (stereo not drawn)
Units: %
inhibition: 4.38
//
Compound: COc1ccc(CNCc2ccc(F)cc2)cc1-c1ccc(OC)c(S(=O)(=O)NCCN2CCCC2)c1
Units: %
inhibition: 6.27
//
Compound: O=C(NCCCCN1CCC(c2ccc3c(c2OCCN2CCCC2)CCCC3)CC1)c1ccc(-c2ccc(C(F)(F)F)cc2)cc1
Units: %
inhibition: 5.87
//
Compound: Cc1cc(C)c(NC(=O)NC2CCN(CCCCCNC(=O)/C=C/c3ccc(Cl)c(Cl)c3)C2)c(C)c1 (stereo not drawn)
Units: %
inhibition: 2.36
//
Compound: CCn1cc(C=C2Oc3c(ccc(O)c3CN3CCCCC3)C2=O)c2cc(OC)ccc21
Units: %
inhibition: 2.04
//
Compound: Cc1ccc(Sc2ccc(NC(=O)CN3CCN(C(=O)c4ccco4)CC3)cc2)cc1C
Units: %
inhibition: 9.65
//
Compound: CN1N=C2c3ccccc3CCC2C1c1ccc(C#N)cc1 (stereo not drawn)
Units: %
inhibition: 9.98
//
Compound: CC(=O)N(Cc1nc(-c2cc(Cl)c(Cl)s2)cs1)c1c(C)cccc1C
Units: %
inhibition: 4.38
//
Compound: CN(C(=O)c1ccc(Br)cc1)c1ccccc1[N+](=O)[O-]
Units: %
inhibition: -1.07
//
Compound: COc1ccc(CCNC(C)Cc2ccc(C(=O)Nc3ccc(CC(C)NCCc4cccc(Cl)c4)cc3)cc2)cc1 (stereo not drawn)
Units: %
inhibition: 13
//
Compound: O=C(Nc1cccc(CN2CCN(C(=O)c3ccccc3)CC2)c1)c1ccco1
Units: %
inhibition: 3.78
//
Compound: Cc1c(C)c2c(c(C)c1O)CC[C@@](C)(C(=O)N1CCC(CCN3CCC(c4c[nH]c5ccccc45)CC3)CC1)O2
Units: %
inhibition: 7
//
Compound: COC1CCC(C(=O)Nc2ccc(-c3cccc(-c4nc5cc(C(F)(F)F)ccc5[nH]4)c3)cc2)CC1 (stereo not drawn)
Units: %
inhibition: -0.27
//
Compound: COc1ccc2[nH]c(C)cc(=NN=Cc3cc(OC)c(OC)cc3OC)c2c1
Units: %
inhibition: 5.13
//
Compound: COc1ccc2nccc([C@@H](O)CN3CCC(NCc4ccc5c(n4)NC(=O)CS5)C(F)C3)c2c1 (stereo partly drawn)
Units: %
inhibition: 1.5
//
Compound: O=C(Nc1ccc(C(F)(F)F)cc1)NC1CCN(c2ccnc3cc(Cl)ccc23)C1 (stereo not drawn)
Units: %
inhibition: 3.27
//
Compound: COc1ccc2nccc(N3CCN(CCNCc4ccc5c(n4)NC(=O)CO5)CC3)c2n1
Units: %
inhibition: 9.11
//
Compound: COc1cc(Cc2cnc(N)nc2N)cc(OC)c1OCCNC(=O)[C@@H](N)CCC(=O)O
Units: %
inhibition: 0
//
Compound: CN(C)C(=S)N/N=C1/C(=O)Nc2ccc(OC(F)(F)F)cc21
Units: %
inhibition: 1.64
//
Compound: Cc1[nH]c2ccccc2c1C(=O)C(C)Sc1nnc(-c2ccccc2F)o1 (stereo not drawn)
Units: %
inhibition: 1.95
//
Compound: Cc1nc(N/C(N)=N/C(=O)NC2CCCCC2)nc2ccccc12
Units: %
inhibition: 5.72
//
Compound: COc1ccc(CNCC2CCC(CNCCc3ccccc3)CC2)cc1Cl (stereo not drawn)
Units: %
inhibition: 2.42
//
Compound: Cc1ccc(C(=O)Nc2ccc(Nc3ccnc4cc(-c5nccs5)ccc34)cc2O)cc1
Units: %
inhibition: 3.22
//
Compound: Fc1ccc2[nH]c3c(NCCN4CCCCC4)ncnc3c2c1
Units: %
inhibition: -0.73
//
Compound: CCCN(CCCN(CCCN(CCC)C(C)C)c1cc(C)nc(Nc2ccc(Cl)cc2)n1)C(C)C
Units: %
inhibition: 7.26
//
Compound: COc1ccc(-c2cnc3[nH]cc(-c4ccc(C(=O)O)c(C)c4)c3c2)cn1
Units: %
inhibition: -0.48
//
Compound: CN(C)Cc1ccc2cc(NC(=O)c3ccc(-c4ccc(Cl)cc4)cc3)ccc2n1
Units: %
inhibition: 1.6
//
Compound: CC(=O)Nc1ccc(S(=O)(=O)N(Cc2cccc(Oc3ccccc3)c2)C2CCN(C/C=C(\C)CCC=C(C)C)CC2)cc1
Units: %
inhibition: 0.21
//
Compound: CN1CCC(N(Cc2ccc(N3CCN(Cc4c[nH]c5ccc(Cl)cc45)CC3)nc2)C2CC2)CC1
Units: %
inhibition: 4.81
//
Compound: CSc1nccc(-c2ccc3ccnc(N)c3c2)n1
Units: %
inhibition: 10.7
//
Compound: Cn1c(N)c(N=O)c(=O)[nH]c1=O
Units: %
inhibition: 0.51
//
Compound: COc1ccccc1CNc1ccnc(N2CC(Oc3ccc(F)cc3)C2)n1
Units: %
inhibition: 0.57
//
Compound: N#Cc1ccc2c(c1)CCN(CCC1CCC(NC(=O)c3cccc(-c4ccc(F)cc4)c3)CC1)CC2 (stereo not drawn)
Units: %
inhibition: 2.32
//
Compound: Nc1nc(N)c2c(ccc3c2cnn3Cc2cccnc2)n1
Units: %
inhibition: 51.2
//
Compound: O=C(/C=C/c1ccc(Cl)c(Cl)c1)NCCCCCCN1CCCN(C(=O)Nc2cc(F)cc(F)c2)CC1
Units: %
inhibition: 1.42
